- System: ATS189
- protocol_summary: qHTS profiling for inhibitors of Plasmodium falciparum proliferation (AID 504749); also: nearly all actives have a fitted effect of over 60% in size
- protocol_conditions: P. falciparum in erythrocytes, SYBR Green DNA, 72 h; series mostly up to 28.7 µM
Inconclusive results are not listed. Active and inactive are the calls of the source. Calls follow the shape of the dose curve; as a rule, active = well fitted inhibition curve with a large enough effect; inconclusive = small, poorly fitted or top-dose-only effect; inactive = flat fitted curve, though single readings scatter.
Respond using exactly one of the listed classes: t = active, f = inactive

CCN1CCc2nc(N)oc2CC1 : f
C[N+](C)(C)CCCCCCCCCC[N+](C)(C)C : t
COc1cc(C(=O)OCCCN2CCCN(CCCOC(=O)c3cc(OC)c(OC)c(OC)c3)CC2)cc(OC)c1OC : t
O=C1CC2(CCCC2)CC(=O)N1CCCCN1CCN(c2ncccn2)CC1 : f
CC(=O)[C@@]1(O)CC[C@H]2[C@@H]3CCC4=CC(=O)CC[C@]4(C)[C@H]3CC[C@@]21C : f

Request: For this compound, state the assay outcome: Cc1cc(C)c(/C=C2\C(=O)Nc3ccccc32)[nH]1
Result: f

Request: For this compound, state the assay outcome: CC1=NS(=O)(=O)c2cc(Cl)ccc2N1
Result: f

* * *

- Tested on: CP305
- protocol_summary: qHTS profiling for inhibitors of Plasmodium falciparum proliferation (AID 504749); also: nearly all actives have a fitted effect of over 60% in size
- protocol_conditions: P. falciparum in erythrocytes, SYBR Green DNA, 72 h; series mostly up to 28.7 µM
Results filed as inconclusive are left out. Activity calls are given as the source filed them. Calls come from the whole dose curve; as a rule, active = well fitted inhibition curve with a large enough effect; inconclusive = small, poorly fitted or top-dose-only effect; inactive = flat fitted curve, though single readings scatter.
Respond using exactly one of the listed classes: Y (active), N (inactive)

Request: For this molecule, state the assay outcome: CCN(Cc1ccncc1)C(=O)C(CO)c1ccccc1 (stereo unspecified)
Result: N

* * *

- protocol_summary: qHTS profiling for inhibitors of Plasmodium falciparum proliferation (AID 504749); also: nearly all actives have a fitted effect of over 60% in size; also: potency is read from the fitted curve at half-maximal effect
- protocol_conditions: P. falciparum in erythrocytes, SYBR Green DNA, 72 h; parasite line A
Records with an inconclusive call do not appear. The source made the active and inactive calls. The call rests on the fitted dose curve; in most records, active means well fitted inhibition curve with a large enough effect; inconclusive means small, poorly fitted or top-dose-only effect; inactive means flat fitted curve, though single readings scatter.
Below, each entry is listed with its recorded Potency.

// known answers, use as guide
O=C(CCCN1CCC(O)(c2cccc(C(F)(F)F)c2)CC1)c1ccc(F)cc1 : 8.91 µM (active)
CC(C)(C)c1ccc(C(=O)CCCN2CCC(OC(c3ccccc3)c3ccccc3)CC2)cc1 : 10 µM (active)
C[N+](C)(C)CCCCCCCCCC[N+](C)(C)C : 3.98 µM (active)
COc1cc2c(cc1OC)-c1cc(=Nc3c(C)cc(C)cc3C)n(C)c(=O)n1CC2 : 2.82 µM (active)
CCCCCCCC/C=C\CCCCCCCC(=O)NCc1ccc(O)c(OC)c1 : 7.08 µM (active)

Alright, here's another compound for you.
Request: Bench note: what Potency did COC(=O)[C@H]1[C@H]2C[C@@H]3c4[nH]c5cc(OC)ccc5c4CCN3C[C@H]2C[C@@H](OC(=O)c2cc(OC)c(OC)c(OC)c2)[C@@H]1OC show?
Result: 11.2 µM (active)

* * *

- protocol_summary: qHTS Assay for Identifying Gametocytocidal Compounds (AID 743244);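 also: % is scaled to controls: 0 for no effect and ±100 for the full control effect; actives lower the fluorescent signal which means gametocytes are killed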
- protocol_conditions: P. falciparum 3D7 stage III-V gametocytes, alamarBlue, 72 h; active compounds read low
Inconclusive results are not listed.
Below, each entry is listed with its recorded max response.
Output spec: scalar in %, unitless text.

CCCC(C(=O)OCCN(CC)CC)(c1ccccc1)c1ccccc1 : -0.916
c1cc(CN2CCCCC2)cc(OCCCNc2nc3ccccc3s2)c1 : -9.42
C=CCc1ccccc1OCC(O)CNC(C)C (stereo unspecified) : 17.2
O=C(CCCN1CCC(O)(c2cccc(C(F)(F)F)c2)CC1)c1ccc(F)cc1 : 20
CCCCOCCOCCOCc1cc2c(cc1CCC)OCO2 : 3.05
CN/C(=C\[N+](=O)[O-])NCCSCc1ccc(CN(C)C)o1 : 33.4

Request: Bench note: what max response did NC(=O)c1ncn([C@@H]2O[C@H](CO)[C@@H](O)[C@H]2O)c1O show?
Result: 13.6

Request: Bench note: what max response did COc1cc2c(cc1OC)-c1cc(=Nc3c(C)cc(C)cc3C)n(C)c(=O)n1CC2 show?
Result: 25.2

Request: Bench note: what max response did c1cnc(N2CCN(Cc3ccc4c(c3)OCO4)CC2)nc1 show?
Result: 1.5

Request: Bench note: what max response did COc1ccc([C@@H]2Sc3ccccc3N(CCN(C)C)C(=O)[C@@H]2OC(C)=O)cc1 show?
Result: -3.45

Request: Bench note: what max response did CCN(CC)CCNC(=O)c1cc(S(C)(=O)=O)ccc1OC show?
Result: -4.07
